Organism: Rattus norvegicus
Assay: Open TG-GATES - Regimen: Daily Repeat
Assay type: toxicity, organism-based, Sprague-Dawley
Design: regimen Daily Repeat, gender Male, age 6 weeks
Settings: in vivo, po, 1000 mg/kg, […], tissue Plasma, route gavage, dose level High, time 14 day
PARAMETER: BUN (mg/dL)
Numbers only here, please. The scale is mg/dL.

Worked cases, BUN given:
COMPOUND	QUANTITY UNIT	BUN
COC1=CC(=O)C[C@@H](C)[C@]12Oc1c(Cl)c(OC)cc(OC)c1C2=O	mg/dL	14.6
COc1ccc2[nH]c([S+]([O-])Cc3ncc(C)c(OC)c3C)nc2c1 (stereo not given)	mg/dL	18.2
NC(N)=Nc1nc(CSCCC(N)=NS(N)(=O)=O)cs1	mg/dL	16.4

Quick one: BUN for CCOC(=O)CCC(=O)O[C@H]1[C@H](O[C@@H]2[C@@H](C)[C@H](O[C@H]3C[C@@](C)(OC)[C@@H](O)[C@H](C)O3)[C@@H](C)C(=O)O[C@H](CC)[C@@](C)(O)[C@H](O)[C@@H](C)C(=O)[C@H](C)C[C@@]2(C)O)O[C@H](C)C[C@@H]1N(C)C [ERYTHROMYCIN ETHYLSUCCINATE] ?
19.6

Quick one: BUN for CCOc1ccc(NC(=O)CC(C)O)cc1 (stereo not given) ?
14.2
